# TARGET OR SYSTEM: T1, SEQ ID NO: 346 glycopeptide with TF-antigen at Thr9
# T1 construct: also called T9^TF
# T1 peptide: HGVTSAPDT(Galβ1‑3GalNAc)RPAPGSTAPP
# METHOD SUMMARY: ELISA on coated glycopeptide, antibody 0.01 mg/ml, mean of 3
Where no end group is shown, it is not given here. Galβ1‑3GalNAc = TF-antigen
The entries below come with measured ELISA absorbance at 450 nm values attached.
Please state the number and follow it with the unit.

Asked: Which ELISA absorbance at 450 nm value is on record for M20 (antibody, human IgG1, kappa, V domains shown, Human IgG) VH: EVQLVESGGGLVQPGGSLRLSCAASGFTFSSYWMHWVRQAPGKGLVWVSHINSDGSSTSYADSVKGRFTISRDNAKNTLYLQMNSLRAEDTAVYYCARELADWGQGTLVTVSS VL: DVVMTQSPLSLPVTLGQPASISCRSSQSLVYSDGNTYLNWFQQRPGQSPRRLIYQVSNRDSGVPDRFSGSGSGTDFTLKIGRVEAEDVGVYFCMQGTHWPWTFGQGTKVEIKR ?
Given back: 1.9 absorbance

Others:
Asked: What value of measured ELISA absorbance at 450 nm is listed for M22 (antibody, human IgG1, kappa, V domains shown, Human IgG) VH: EVQLVESGGGLVQPGGSLRLSCAASGFTVSSNYMSWVRQAPGKGLEWVSVIYSGGTTYYADSVKGRFTISRHNSKNTLYLQMNSLRAEDTAVYYCARDHDPDYGGYYMDVWGKGTTVTVSS VL: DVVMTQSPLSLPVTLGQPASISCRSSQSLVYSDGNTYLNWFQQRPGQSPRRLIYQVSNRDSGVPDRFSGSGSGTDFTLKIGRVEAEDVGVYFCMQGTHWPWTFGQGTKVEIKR ?
Given back: 2.3 absorbance

Asked: Field request: ELISA absorbance at 450 nm | item: M7 (antibody, human IgG1, kappa, V domains shown, Human IgG) VH: EVQLVESGGGLVQPGGSLRLSCAASGFTVSSNYMSWVRQAPGKGLEWVSVIYSGGSTYYADSVKGRFTISRDNSKNTLYLQMNSLRAEDTAVYYCARGSTNTYYYDSSGHPWGQGTMVTVSS VL: DIVMTQSPLSLPATPGEPASISCRSSQSLLHSNGYTYLDWYLQKPGQSPQVLIYLASNRASGVPDRFSGSGSGTNFTLKISRVEAEDVGLFYCMQALQTPQTFGQGTKLEIKR
Given back: 0.1 absorbance

Asked: Sample M21 (antibody, human IgG1, kappa, V domains shown, Human IgG) VH: EVQLVESGGGLVQPGGSLRLSCAASGFTVSSNYMSWVRQAPGKGLEWVSVIYSGGSTYYADSVKGRFTISRDNSKNTLYLQMNSLRAEDTAVYYCARDQEHYFDGSGYYVDYWGQGTLVTVSS VL: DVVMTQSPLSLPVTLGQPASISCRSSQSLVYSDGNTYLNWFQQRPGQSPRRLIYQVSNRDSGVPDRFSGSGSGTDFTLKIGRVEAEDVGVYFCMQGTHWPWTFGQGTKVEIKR — what was its ELISA absorbance at 450 nm?
Given back: 2.1 absorbance
